The values you see were collected from patent US6949574B2.

Test Target: human FAAH (Homo sapiens, UniProt O00519)
Construct: expressed in transfected cells; host or cells: H4 cells (H4-FAAH, Geneticin-selected); crude membrane homogenates
Sequence (O00519 whole entry): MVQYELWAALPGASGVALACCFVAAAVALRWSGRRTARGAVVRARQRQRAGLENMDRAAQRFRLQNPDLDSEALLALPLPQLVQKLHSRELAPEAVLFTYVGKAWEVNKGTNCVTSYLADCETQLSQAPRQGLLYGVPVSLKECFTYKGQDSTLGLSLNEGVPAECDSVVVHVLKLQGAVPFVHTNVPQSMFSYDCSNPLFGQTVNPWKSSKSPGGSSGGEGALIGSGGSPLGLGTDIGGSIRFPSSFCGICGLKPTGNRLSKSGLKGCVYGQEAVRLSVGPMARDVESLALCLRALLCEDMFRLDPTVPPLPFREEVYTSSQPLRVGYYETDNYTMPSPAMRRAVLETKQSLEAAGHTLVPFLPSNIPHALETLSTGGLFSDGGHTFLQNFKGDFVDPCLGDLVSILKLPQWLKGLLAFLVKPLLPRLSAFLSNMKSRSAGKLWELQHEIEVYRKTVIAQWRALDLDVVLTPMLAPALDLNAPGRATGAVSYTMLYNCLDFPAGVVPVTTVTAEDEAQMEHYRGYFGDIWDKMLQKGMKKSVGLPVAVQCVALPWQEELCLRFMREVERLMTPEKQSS
Protocol: FAAH activity in membrane homogenates of H4-FAAH cells, [3H]-anandamide hydrolysis
Type: biochemical
Assay Conditions: H4-FAAH cell membranes, 10 μM anandamide, room temperature, one hour; read-out: IC50
pIC50: −log10 of the molar value.
Measured pIC50 by item

[
  {
    "Smiles Structure": "CCCCOc1ccc(CNC(=O)Oc2cccnc2)cc1",
    "pIC50": "> 8.00"
  },
  {
    "Smiles Structure": "CCCCCCCCCCCCOc1ccc(NC(=O)O/N=C/c2ccccc2)cc1",
    "pIC50": "> 8.00"
  },
  {
    "Smiles Structure": "O=C(Nc1ccccc1Oc1ccccc1)O/N=C/c1ccc(F)cc1",
    "pIC50": "< 6.30"
  },
  {
    "Smiles Structure": "CCCCCCCCCCCCOc1ccc(NC(=O)ON=C(C)C)cc1",
    "pIC50": "> 8.00"
  },
  {
    "Smiles Structure": "CCCCCCCCC(=O)Nc1ccc(NC(=O)O/N=C/c2ccc(F)c(F)c2)cc1",
    "pIC50": "7.00 to 8.00"
  },
  {
    "Smiles Structure": "O=C(Nc1ccc(OCCCc2ccccc2)cc1)O/N=C/c1ccccc1",
    "pIC50": "> 8.00"
  },
  {
    "Smiles Structure": "CCCCCCCCCCOc1ccc(NC(=O)O/N=C/c2cccnc2)cc1",
    "pIC50": "> 8.00"
  },
  {
    "Smiles Structure": "CCCCCCCCOc1ccc(NC(=O)ON=C(C)C)cc1",
    "pIC50": "> 8.00"
  },
  {
    "Smiles Structure": "O=C(Nc1ccc(OCc2ccccc2)cc1)O/N=C/c1ccccc1",
    "pIC50": "> 8.00"
  },
  {
    "Smiles Structure": "O=C(Nc1ccc(OCc2ccccc2)cc1)O/N=C/c1ccc(F)cc1",
    "pIC50": "> 8.00"
  },
  {
    "Smiles Structure": "CCCCCOc1ccc(NC(=O)ON=C(C)C)cc1",
    "pIC50": "7.00 to 8.00"
  },
  {
    "Smiles Structure": "CCCCCCCCOc1ccc(NC(=O)O/N=C/c2ccccc2)cc1",
    "pIC50": "> 8.00"
  },
  {
    "Smiles Structure": "CCCCOc1ccc(NC(=O)O/N=C/c2ccc(F)cc2)cc1OC",
    "pIC50": "6.30 to 7.00"
  },
  {
    "Smiles Structure": "CCCCCOc1ccc(NC(=O)O/N=C/c2cccnc2)cc1",
    "pIC50": "> 8.00"
  },
  {
    "Smiles Structure": "CCCCOc1ccc(CNC(=O)Oc2ccc(OC)cc2)cc1",
    "pIC50": "> 8.00"
  },
  {
    "Smiles Structure": "O=C(Nc1ccc(OCCc2ccccc2)cc1)O/N=C/c1ccccc1",
    "pIC50": "> 8.00"
  },
  {
    "Smiles Structure": "O=C(Nc1c[nH]c2ccccc12)O/N=C/c1ccc(F)cc1",
    "pIC50": "< 6.30"
  },
  {
    "Smiles Structure": "O=C(Nc1cccc(Oc2ccccc2)c1)O/N=C/c1cccnc1",
    "pIC50": "> 8.00"
  }
]
